# PROCEDURE SUMMARY: preliminary PK in mCRPC participants (Phase 1/2)
# Format: in vivo, human
# CONDITIONS: male, human, plasma, oral, 500 mg, 500 mg QD, Mean (CV %); read-out: Cmax Day 21
ENDPOINT NAME: Cmax (ng/mL)

INSERT INTO assay_data (molecule, endpoint_name, endpoint_value) VALUES
  ('COc1cc(O[C@H]2C(C)(C)[C@H](NC(=O)c3ccc(N4CCC(CN5CCN(c6ccc(C(=O)N[C@H]7CCC(=O)NC7=O)c(F)c6)CC5)CC4)cc3)C2(C)C)ccc1C#N [Compound A]', 'Cmax', 703);
